Tested on: Yap1 mRNA
experiment-description: Dose-dependent inhibition of human Yap1 in A-431 cells (Example 6, 5,000 cells per well, RTS4814)
Type: cell-based
test-conditions: Table 53; A-431 cells, free uptake, 148 nM, approximately 48 hours, RTS4814
Strand notation (5' to 3'): a small letter for the sugar, then the base; units joined by * are phosphorothioate-linked, units joined directly phosphodiester-linked; [ ] holds rarer units or linkages, { } end groups; capitals alone tell only the bases. k = constrained ethyl (cEt); [5mC] = 5-methylcytosine; d = 2'-deoxy (DNA)
Reported % UTC 148 nM values are given for each entry in this list.
measurement-name: % UTC 148 nM (% UTC)

1) 715508 (k[5mC]*kT*kG*dT*dG*d[5mC]*dT*dG*dG*dG*dA*dT*dT*kG*kA*kT; antisense) [compound 715508] | 78
2) 715480 (kG*kG*kA*dA*dA*d[5mC]*d[5mC]*dA*dT*dT*dA*dT*dT*kA*k[5mC]*kT; antisense) [compound 715480] | 91
3) 715490 (k[5mC]*k[5mC]*kA*dA*d[5mC]*dT*dA*dT*dT*dA*d[5mC]*dT*dT*k[5mC]*kA*kT; antisense) [compound 715490] | 98
4) 715433 (kT*kG*kT*dT*d[5mC]*dT*dT*dA*dT*dG*dG*dT*dT*kT*kA*kT; antisense) [compound 715433] | 87
5) 715479 (kA*kA*kA*d[5mC]*d[5mC]*dA*dT*dT*dA*dT*dT*dA*d[5mC]*kT*k[5mC]*k[5mC]; antisense) [compound 715479] | 98
6) 715483 (k[5mC]*kT*k[5mC]*dT*dT*dT*dG*dG*dA*dA*dA*d[5mC]*d[5mC]*kA*kT*kT) [compound 715483] | 82
7) 715577 (kG*k[5mC]*kA*dT*dT*d[5mC]*dA*d[5mC]*dA*dG*dA*dG*dT*kT*kA*kA; antisense) [compound 715577] | 87
8) 715415 (k[5mC]*kG*kA*dA*d[5mC]*dA*dT*dG*d[5mC]*dT*dG*dT*dG*kG*kA*kG; antisense) [compound 715415] | 84
9) 715486 (kT*kA*k[5mC]*dT*dT*d[5mC]*dA*dT*dA*dG*d[5mC]*dT*dT*kA*kT*kA; antisense) [compound 715486] | 93
10) 715478 (kA*k[5mC]*k[5mC]*dA*dT*dT*dA*dT*dT*dA*d[5mC]*dT*d[5mC]*k[5mC]*kT*kG; antisense) [compound 715478] | 70
11) 715501 (kA*kA*kA*dA*dG*d[5mC]*d[5mC]*dT*dT*dA*dG*dA*dG*kT*k[5mC]*kA; antisense) [compound 715501] | 82
12) 715487 (kA*kT*kT*dA*d[5mC]*dT*dT*d[5mC]*dA*dT*dA*dG*d[5mC]*kT*kT*kA) [compound 715487] | 87
13) 715423 (k[5mC]*k[5mC]*kA*dT*dG*dT*dT*dG*dT*dT*dG*dT*d[5mC]*kT*kG*kA; antisense) [compound 715423] | 83

###

Tested on: Yap1 mRNA
experiment-description: Antisense inhibition of human Yap1 in A-431 cells by cEt gapmers, single dose (Example 1, RTS4814)
Type: cell-based
test-conditions: A-431 cells, 5,000 cells per well, free uptake, 2,000 nM modified oligonucleotide, approx. 48 hours, RTS4814, normalized to RIBOGREEN; Table 3
Strand notation (5' to 3'): a small letter for the sugar, then the base; units joined by * are phosphorothioate-linked, units joined directly phosphodiester-linked; [ ] holds rarer units or linkages, { } end groups; capitals alone tell only the bases. k = constrained ethyl (cEt); [5mC] = 5-methylcytosine; d = 2'-deoxy (DNA)
# cutoff 80 % UTC applies to YAP1 (% UTC); >= gives 1.0, < gives 0.0

1) 715456 (antisense kA*kG*kT*dG*dA*dT*dA*dG*dG*dT*dG*d[5mC]*d[5mC]*kA*k[5mC]*kT) [Compound 715456] | 1.0
2) 715420 (kG*kA*kT*dT*dT*dA*dA*dG*dA*dA*dG*dT*dA*kT*k[5mC]*kT; antisense) [Compound 715420] | 1.0
3) 715492 (antisense kG*k[5mC]*kT*dA*dG*d[5mC]*dT*dG*dG*dT*dG*d[5mC]*d[5mC]*kA*k[5mC]*kT) [Compound 715492] | 0.0
4) 715549 (kG*kA*kA*dG*dT*dT*dG*dT*dT*dG*dA*d[5mC]*d[5mC]*kA*kA*k[5mC]; antisense) [Compound 715549] | 0.0
5) 715462 (antisense kT*k[5mC]*kT*d[5mC]*dA*dT*d[5mC]*dT*d[5mC]*dG*dA*dG*dA*kG*kT*kG) [Compound 715462] | 1.0

###

Reported IC50 values are given for each entry in this list.
Tested on: Yap1 mRNA
experiment-description: Dose-dependent inhibition of human Yap1 in A-431 cells (Example 8, 10,000 cells per well, RTS4814)
Type: cell-based
test-conditions: A-431 cells, free uptake, approximately 48 hours, RTS4814; linear regression on log/linear plot
Strand notation (5' to 3'): a small letter for the sugar, then the base; units joined by * are phosphorothioate-linked, units joined directly phosphodiester-linked; [ ] holds rarer units or linkages, { } end groups; capitals alone tell only the bases. k = constrained ethyl (cEt); [5mC] = 5-methylcytosine; d = 2'-deoxy (DNA)
measurement-name: IC50

1. 1074222 (antisense kA*kG*kG*dA*dA*dT*dG*dA*dG*d[5mC]*dT*d[5mC]*dG*kA*kA*k[5mC]) [compound 1074222] | < 20 nM
2. 1076326 (kG*k[5mC]*kT*dA*dA*dT*dA*dA*dT*dG*dG*dA*dA*kG*kA*kG; antisense) [compound 1076326] | < 20 nM
3. 1075876 (antisense kG*kT*kA*dT*dT*dT*dA*dT*dG*dA*dT*dG*dA*kT*kT*k[5mC]) [compound 1075876] | < 20 nM
4. 1074630 (antisense kA*kG*kA*dG*dA*dT*dT*dT*dT*dA*dT*dG*d[5mC]*k[5mC]*kT*kG) [compound 1074630] | < 20 nM
5. 1074443 (kT*k[5mC]*kA*dG*dA*d[5mC]*d[5mC]*dA*dG*dT*dA*dA*dA*kT*k[5mC]*kA; antisense) [compound 1074443] | 100 nM
6. 1074446 (kA*kT*kG*dA*dT*dA*dG*d[5mC]*dA*d[5mC]*dT*dA*dG*kG*kA*kG; antisense) [compound 1074446] | < 20 nM
7. 1075138 (kA*kA*kT*dA*dA*dT*dA*dG*dA*dT*dA*d[5mC]*dT*kG*k[5mC]*k[5mC]; antisense) [compound 1075138] | 50 nM
8. 1074756 (kG*k[5mC]*kA*d[5mC]*dT*dT*dT*dT*dA*d[5mC]*dA*dT*dT*kA*kG*kG) [compound 1074756] | < 20 nM
9. 1074608 (DNA kG*kT*kT*dA*d[5mC]*dA*dT*d[5mC]*dA*dT*d[5mC]*dT*d[5mC]*kT*kT*k[5mC]) [compound 1074608] | < 20 nM
10. 1076288 (k[5mC]*kT*kT*dA*dT*dT*dT*dA*dG*d[5mC]*dA*dT*dA*kG*kT*kG; antisense) [compound 1076288] | < 20 nM
11. 1075784 (kA*kT*kT*dT*dT*dA*dT*dA*dG*dG*dG*d[5mC]*d[5mC]*kA*kT*kT; antisense) [compound 1075784] | < 20 nM
12. 1074755 (k[5mC]*kA*k[5mC]*dT*dT*dT*dT*dA*d[5mC]*dA*dT*dT*dA*kG*kG*kA; antisense) [compound 1074755] | < 20 nM
13. 1076064 (kT*kA*kT*dG*dA*dA*d[5mC]*dA*dA*dT*dG*dT*dA*k[5mC]*kT*k[5mC]; antisense) [compound 1076064] | 100 nM
14. 1075968 (kT*kA*kT*dT*dT*dA*dA*dG*d[5mC]*d[5mC]*dA*dA*dA*k[5mC]*k[5mC]*kG; antisense) [compound 1075968] | 100 nM
15. 1075748 (kG*kT*kA*dA*dA*dT*d[5mC]*dA*dA*dG*dT*dT*dG*k[5mC]*kA*kT; antisense) [compound 1075748] | 100 nM
16. 1075041 (antisense kG*kA*kT*dT*dA*dT*dA*dA*dA*dG*dA*dG*dG*k[5mC]*kT*k[5mC]) [compound 1075041] | 50 nM
17. 1074565 (DNA kA*k[5mC]*kT*dG*dA*dA*dT*dT*d[5mC]*d[5mC]*dA*dA*dT*k[5mC]*kG*kA; antisense) [compound 1074565] | < 20 nM
18. 1074419 (kA*kT*kT*d[5mC]*dT*dT*dT*dA*dG*dA*dG*d[5mC]*d[5mC]*kA*kA*k[5mC]; antisense) [compound 1074419] | < 20 nM
19. 1074576 (DNA kA*kT*kG*d[5mC]*dA*d[5mC]*dA*dT*dT*dA*dT*dG*dA*kA*k[5mC]*k[5mC]) [compound 1074576] | 100 nM
20. 1074578 (DNA kG*k[5mC]*kT*dT*dA*dT*dT*dT*d[5mC]*dT*dG*dT*d[5mC]*kA*kT*kG) [compound 1074578] | 100 nM
21. 1076330 (antisense kG*kA*kA*dT*dT*dA*dT*dA*d[5mC]*dT*dG*dG*d[5mC]*kT*kA*k[5mC]) [compound 1076330] | 40 nM
22. 1076456 (k[5mC]*kT*kT*dT*dA*dA*dA*dG*dT*dG*dT*dA*dT*kG*kT*k[5mC]) [compound 1076456] | < 20 nM
23. 1076466 (kA*kT*kT*dT*dA*dG*dA*dG*d[5mC]*dT*dT*dA*dA*kG*kG*kA; antisense) [compound 1076466] | < 20 nM
24. 1076293 (kG*k[5mC]*kT*dT*dA*dT*dT*dA*dT*dT*dG*dA*dG*kT*kT*kA; antisense) [compound 1076293] | < 20 nM
25. 1074736 (kT*k[5mC]*kA*dG*dT*dA*d[5mC]*dA*dG*dA*dG*dG*dG*k[5mC]*kA*kT; antisense) [compound 1074736] | < 20 nM
